Values from paper PMC9403610

system name: Porcine pancreatic lipase (PL) (Sus scrofa)
Construct: purchased Sigma Chemical Co. (St. Louis, MO, USA)
Sequence (P00591 1-450): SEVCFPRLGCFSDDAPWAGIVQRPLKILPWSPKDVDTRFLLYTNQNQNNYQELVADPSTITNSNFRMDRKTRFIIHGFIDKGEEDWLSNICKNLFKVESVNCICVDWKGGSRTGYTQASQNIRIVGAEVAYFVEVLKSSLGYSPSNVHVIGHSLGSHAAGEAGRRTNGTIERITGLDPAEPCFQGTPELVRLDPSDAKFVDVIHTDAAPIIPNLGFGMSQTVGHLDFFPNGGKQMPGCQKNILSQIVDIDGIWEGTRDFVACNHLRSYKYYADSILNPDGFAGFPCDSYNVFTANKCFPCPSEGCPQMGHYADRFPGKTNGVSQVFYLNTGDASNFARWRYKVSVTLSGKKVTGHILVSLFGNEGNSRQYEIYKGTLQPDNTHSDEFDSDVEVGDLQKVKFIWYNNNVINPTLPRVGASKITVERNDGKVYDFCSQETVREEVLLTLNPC
test details: Pancreatic lipase inhibition assay (pNPB substrate, absorbance 405 nm)
Assay type: biochemical
experimental setup: pNPB substrate, Tris-HCl pH 7.5, 37°C
Where no end group is shown, it is not given here.
# IC50 values compiled below
Give the value in µM but do not write µM after it.

# substance, result
data = [
    ("GSPPPSG [GSPPPSG]", 1000),
]

Please fill in: IC50 reported for KLEGDLK [KLEGDLK] = 1350
